Data origin, for the record: patent US20260132127A1

# TARGET: human TRH-DE (Homo sapiens, UniProt Q9UKU6)
# Sequence (Q9UKU6 1-1069): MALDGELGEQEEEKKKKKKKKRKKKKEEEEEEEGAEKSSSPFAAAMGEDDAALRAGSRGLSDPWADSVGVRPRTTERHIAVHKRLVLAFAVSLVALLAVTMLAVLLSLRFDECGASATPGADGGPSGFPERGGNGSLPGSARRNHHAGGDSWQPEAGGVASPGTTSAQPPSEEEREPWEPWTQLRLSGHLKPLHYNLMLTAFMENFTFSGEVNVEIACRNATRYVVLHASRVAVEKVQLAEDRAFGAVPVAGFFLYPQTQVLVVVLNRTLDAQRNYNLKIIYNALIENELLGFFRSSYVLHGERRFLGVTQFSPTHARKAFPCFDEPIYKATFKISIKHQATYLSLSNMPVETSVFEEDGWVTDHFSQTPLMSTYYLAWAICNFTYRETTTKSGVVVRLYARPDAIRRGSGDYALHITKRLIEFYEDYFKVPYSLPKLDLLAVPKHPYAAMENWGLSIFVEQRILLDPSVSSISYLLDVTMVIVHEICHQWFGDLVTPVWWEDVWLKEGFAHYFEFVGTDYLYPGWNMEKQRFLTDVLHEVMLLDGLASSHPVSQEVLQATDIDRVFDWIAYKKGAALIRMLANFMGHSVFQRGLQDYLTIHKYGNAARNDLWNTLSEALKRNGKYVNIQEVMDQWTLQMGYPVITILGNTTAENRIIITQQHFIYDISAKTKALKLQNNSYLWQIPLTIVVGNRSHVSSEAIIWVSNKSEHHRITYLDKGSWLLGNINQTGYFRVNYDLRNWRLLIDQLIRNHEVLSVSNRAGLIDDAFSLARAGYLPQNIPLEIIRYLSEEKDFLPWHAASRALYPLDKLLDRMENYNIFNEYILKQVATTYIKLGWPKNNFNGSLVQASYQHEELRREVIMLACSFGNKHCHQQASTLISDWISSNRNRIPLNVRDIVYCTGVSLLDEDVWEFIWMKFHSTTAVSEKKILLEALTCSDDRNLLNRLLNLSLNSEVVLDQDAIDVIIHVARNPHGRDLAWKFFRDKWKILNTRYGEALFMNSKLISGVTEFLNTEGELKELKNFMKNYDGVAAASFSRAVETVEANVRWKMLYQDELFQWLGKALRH
Some molecules, each annotated with its measured pIC50.
# pIC50 = -log10(concentration in molar units)

## Task For the molecule CC1COc2cccnc2C(=O)N1C1CC2(C1)CN(S(=O)(=O)c1ccccc1F)C2 (single isomer, unassigned) , give its reported pIC50.
## Result 8.30

## Task For the molecule C[C@@H]1CCn2c(C3CC3)nc(Cl)c2C(=O)N1C1CC2(C1)CN(S(=O)(=O)c1ccccc1F)C2 , give its reported pIC50.
## Result 7.48

## Task For the molecule C[C@@H]1COc2cc(N3CCC(F)CC3)ncc2C(=O)N1C1CC2(C1)CN(S(=O)(=O)c1ccccc1F)C2 , give its reported pIC50.
## Result 9.00

## Task For the molecule COCCCN1C[C@@H](C)N(C2CC3(C2)CN(S(=O)(=O)c2ccccc2F)C3)C(=O)c2ncccc21 , give its reported pIC50.
## Result 7.66

## Task For the molecule C[C@@H]1COc2nc(C3CC3)sc2C(=O)N1C1CC2(C1)CN(S(=O)(=O)c1ccccc1F)C2 , give its reported pIC50.
## Result 8.40

## Task For the molecule C[C@@H]1COc2nc(OC3CCOCC3)ncc2C(=O)N1C1CC2(C1)CN(S(=O)(=O)c1ccccc1F)C2 , give its reported pIC50.
## Result 7.96

## Task For the molecule CC1c2cc(C(F)(F)F)cnc2C(=O)N(C2CC3(C2)CN(S(=O)(=O)c2ccccc2F)C3)C1C (racemic) , give its reported pIC50.
## Result 7.85

## Task For the molecule CCCN(C(=O)c1cccnc1NC1CC1)C1CC2(C1)CN(S(=O)(=O)c1cc(C)ccc1F)C2 , give its reported pIC50.
## Result 7.85

## Task For the molecule C[C@@H]1C=Cc2oc(C3CC3)nc2C(=O)N1C1CC2(C1)CN(S(=O)(=O)c1ccccc1F)C2 , give its reported pIC50.
## Result 6.65

## Task For the molecule Cc1cnc2c(c1)C(=O)N(C1CC3(C1)CN(S(=O)(=O)c1ccccc1F)C3)C(C)CO2 (racemic) , give its reported pIC50.
## Result 7.82

## Task For the molecule C[C@@H]1COc2cc(N(C)Cc3ccccc3)ncc2C(=O)N1C1CC2(C1)CN(S(=O)(=O)c1ccccc1F)C2 , give its reported pIC50.
## Result 8.70

## Task For the molecule CC1c2cc(F)cnc2C(=O)N1C1CC2(C1)CN(S(=O)(=O)c1ccccc1F)C2 (single isomer, unassigned) [Example 362] , give its reported pIC50.
## Result 6.74

## Task For the molecule C[C@@H]1COc2cc(N3CCCCCC3)ncc2C(=O)N1C1CC2(C1)CN(S(=O)(=O)c1ccccc1F)C2 , give its reported pIC50.
## Result 9.00

## Task For the molecule CC1COc2ncccc2C(=O)N1C1CC2(C1)CN(S(=O)(=O)c1cccc(F)c1)C2 (racemic) , give its reported pIC50.
## Result 6.08

====

Some molecules, each annotated with its measured IC50.
# TARGET: UniProtKB Q9UKU6
Please respond with the number in nM and leave the unit unwritten.

// solved cases for IC50 follow
C[C@@H]1CCn2c(cnc2Br)C(=O)N1C1CC2(C1)CN(S(=O)(=O)c1ccccc1F)C2 = 11
Cc1nc2c(s1)C(=O)N(C1CC3(C1)CN(S(=O)(=O)c1ccccc1F)C3)[C@H](C)C=C2 = 116
CC1Cc2ccccc2C(=O)N1C1CC2(C1)CN(S(=O)(=O)c1ccccc1F)C2 (stereo not drawn) = 14
C[C@@H]1COc2cc(C#N)cnc2C(=O)N1C1CC2(C1)CN(S(=O)(=O)c1ccccc1F)C2 = 4
CC(C)Oc1ncc2c(n1)OC[C@@H](C)N(C1CC3(C1)CN(S(=O)(=O)c1ccccc1F)C3)C2=O = 8

## Task Provide IC50, system UniProtKB Q9UKU6, entry C[C@@H]1COc2nc(Cl)cnc2C(=O)N1C1CC2(C1)CN(S(=O)(=O)c1ccccc1F)C2
## Result 5

## Task Provide IC50, system UniProtKB Q9UKU6, entry C[C@@H]1CCN2CCC[C@H]2C(=O)N1C1CC2(C1)CN(S(=O)(=O)c1ccccc1F)C2 [Example 221]
## Result 988

## Task Provide IC50, system UniProtKB Q9UKU6, entry C[C@@H]1CCn2nc(C3(C(F)(F)F)CC3)cc2C(=O)N1C1CC2(C1)CN(S(=O)(=O)c1ccccc1F)C2
## Result 9

## Task Provide IC50, system UniProtKB Q9UKU6, entry C[C@@H]1COc2cc(C3CC3)ncc2C(=O)N1C1CC2(C1)CN(S(=O)(=O)c1ccccc1[N+](=O)[O-])C2
## Result 42

## Task Provide IC50, system UniProtKB Q9UKU6, entry CC1CCc2ncc(C(F)(F)F)cc2C(=O)N1C1CC2(C1)CN(S(=O)(=O)c1ccccc1F)C2 (racemic)
## Result 286

## Task Provide IC50, system UniProtKB Q9UKU6, entry CC1c2cnccc2C(=O)N1C1CC2(C1)CN(S(=O)(=O)c1ccccc1F)C2 (racemic)
## Result 355

## Task Provide IC50, system UniProtKB Q9UKU6, entry CC1COc2ncccc2C(=O)N1C1CC2(C1)CN(S(=O)(=O)c1ccccc1)C2 (stereo not drawn)
## Result 85

## Task Provide IC50, system UniProtKB Q9UKU6, entry C[C@@H]1COc2nc(OC3CCC3)ncc2C(=O)N1C1CC2(C1)CN(S(=O)(=O)c1ccccc1F)C2
## Result 5

## Task Provide IC50, system UniProtKB Q9UKU6, entry C[C@@H]1COc2nc(F)ccc2C(=O)N1C1CC2(C1)CN(S(=O)(=O)c1ccccc1F)C2
## Result 9

## Task Provide IC50, system UniProtKB Q9UKU6, entry C[C@@H]1COc2nn(C3CC3)cc2C(=O)N1C1CC2(C1)CN(S(=O)(=O)c1ccccc1F)C2
## Result 21

====

# TARGET: human TRH-DE (Homo sapiens, UniProt Q9UKU6)
Label MET when IC50 < 20 nM; otherwise NOT MET.

C[C@@H]1COc2ncccc2C(=O)N1C1CC2(C1)CN(S(=O)(=O)c1ccccc1F)C2 [Example 38] = MET
CC1c2ccccc2NCC(=O)N1C1CC2(C1)CN(S(=O)(=O)c1ccccc1F)C2 (racemic) [Example 47] = NOT MET
C[C@@H]1COc2nc(N3[C@@H]4CC[C@H]3COC4)ncc2C(=O)N1C1CC2(C1)CN(S(=O)(=O)c1ccccc1F)C2 [Example 389] = MET

## Task Bench note: check whether C[C@@H]1CCn2nc(Cl)cc2C(=O)N1C1CC2(C1)CN(S(=O)(=O)c1ccccc1F)C2 [Example 186] shows IC50 below 20 nM
## Result NOT MET
